tested on: BLM; test: Migrastatic activity against human BLM cells assessed as decrease in cell migration at 10 uM incubated for 24 hrs by spheroid invasion assay; type: functional, cell-based
Calls of active or inactive are those of the source. No cut-off for these calls is given here.
Bench note: report the call from 1 (active), -1 (inactive)

Tell me the assay call for C=C1[C@@H](C)[C@H]2[C@H](Cc3ccccc3)NC(=O)[C@@]2(C(=O)OC)[C@@H](CCOCCc2ccccc2)[C@@H]1O please.
1

Identify the outcome logged in this assay for the compound shown: C=C1[C@@H](C)[C@H]2[C@H](Cc3ccccc3)NC(=O)[C@]23[C@H](OC(C)=O)/C=C/[C@@](C)(O)C(=O)[C@@H](C)C/C=C/[C@H]3[C@@H]1O
-1

====

test system: BLM; test: Migrastatic activity against human BLM cells assessed as decrease in cell migration at 10 uM incubated for 24 hrs by spheroid invasion assay; type: functional, cell-based
Activity calls are given as the source filed them. The rule behind the calls is not given here.
quantity name: Activity

CC1=C[C@H](CCOCCc2ccccc2)[C@]2(CO)C(=O)N[C@@H](Cc3ccccc3)[C@@H]2[C@@H]1C Active
COC(=O)[C@@]12C(=O)N[C@@H](Cc3ccccc3)[C@@H]1[C@H](C)C(C)=C[C@@H]2CCCOCc1ccccc1 Active
